protocol.details: Solubility of the Compound in water, biorelevant media (FaSSIF, FeSSIF) and oils
Format: physicochemical
assay.setup: FaSSIF, as restated in Example 5; read-out: solubility of the Compound in FaSSIF
metric.name: solubility

Req: Which solubility value is on record for COc1cc2ncc3c(c2cc1-c1cnn(C)c1)n(-c1ccc(C#N)cc1F)c(=O)n3C ?
Resp: ~0.25 µg/mL

---

protocol.details: Solubility of the Compound in water, biorelevant media (FaSSIF, FeSSIF) and oils
Type: physicochemical
assay.setup: FeSSIF; read-out: solubility in FedState Simulated Intestinal Fluid (FeSSIF)
metric.name: solubility (µg/mL)
Give the quantity in µg/mL, number only.

Req: Bench note: what solubility did COc1cc2ncc3c(c2cc1-c1cnn(C)c1)n(-c1ccc(C#N)cc1F)c(=O)n3C show?
Resp: 1
